Attribution: patent US20110059095A1

target: full length human PAR-2 (human, UniProt P55085 26-397); assay: cell-based or functional assay
Sequence (P55085 26-397 G138A limits assumed): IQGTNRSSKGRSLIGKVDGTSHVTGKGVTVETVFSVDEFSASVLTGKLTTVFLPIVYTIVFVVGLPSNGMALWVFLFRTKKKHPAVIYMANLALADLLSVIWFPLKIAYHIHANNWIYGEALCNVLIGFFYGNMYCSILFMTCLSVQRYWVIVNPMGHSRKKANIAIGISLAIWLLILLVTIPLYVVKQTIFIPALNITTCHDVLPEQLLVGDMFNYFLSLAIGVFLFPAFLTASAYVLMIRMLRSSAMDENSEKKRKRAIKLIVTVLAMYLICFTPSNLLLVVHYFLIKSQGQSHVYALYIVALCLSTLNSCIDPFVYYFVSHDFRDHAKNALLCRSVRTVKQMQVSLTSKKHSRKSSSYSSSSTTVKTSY
// values below are reported IC50, NF-kB-luciferase, 200 nM Factor Xa
Answer in nM, number only, no unit symbol.

BINDER: H4H618N (antibody, human IgG4, V domains shown, also called H2M618N variable regions) VH: EVQLLESGGGLVQPGGSLRLSCAASGFTFRSYTMTWVRQAPGKGLDWVSGITDSGAGTYYGDSVKGRFTISRDNSKNTLYLQMNSLRAEDTAVYYCVKEGDSGYDLDYWGQGTLVTVSS VL: DIQMTQSPSSLSASVGDRVTITCRASQGISTYLAWLQQKPGKAPKSLIYATSSLQSGVPSKFSGSRSGTDFTLTISSLQPEDFATYYCQQYKSSPLTFGGGTKVEIK
UNIT LABEL: nM
IC50, NF-kB-luciferase, 200 nM Factor Xa: 47.2
//
BINDER: H4H588N (antibody, human IgG4, V domains shown, also called H2M588N variable regions) VH: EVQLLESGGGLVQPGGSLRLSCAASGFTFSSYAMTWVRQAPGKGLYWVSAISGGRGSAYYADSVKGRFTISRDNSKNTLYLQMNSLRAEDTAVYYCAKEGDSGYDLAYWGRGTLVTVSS VL: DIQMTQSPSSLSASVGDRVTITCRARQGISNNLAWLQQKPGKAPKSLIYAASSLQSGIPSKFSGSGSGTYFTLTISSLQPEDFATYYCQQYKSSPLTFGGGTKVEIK
UNIT LABEL: nM
IC50, NF-kB-luciferase, 200 nM Factor Xa: 17.1

Turning now to a further record.
Value of measured IC50, NF-kB-luciferase, 200 nM Factor Xa for the entry H4H581P (antibody, human IgG4, V domains shown, also called mAb H4H581P; H1H581P variable regions) VH: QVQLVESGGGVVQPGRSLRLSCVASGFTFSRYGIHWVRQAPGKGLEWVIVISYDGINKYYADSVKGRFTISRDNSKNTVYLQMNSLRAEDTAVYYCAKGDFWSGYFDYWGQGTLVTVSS VL: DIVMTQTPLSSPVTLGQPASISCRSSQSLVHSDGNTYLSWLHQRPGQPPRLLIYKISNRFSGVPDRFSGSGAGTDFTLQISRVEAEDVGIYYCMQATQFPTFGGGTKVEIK : 5.3
